tested on: Saccharomyces cerevisiae; experiment: protein stability index of tFT-peptide fusion (C-terminal peptide) (PSI (0-1 scale)); higher = more stable (slower turnover); details: genetic background: cdc53-1; temperature: 37 C
Classification by protein stability index follows these ranges: bottom end: < 0.3; midrange: ≥ 0.3 and < 0.5; top end: ≥ 0.5

Some solved cases for reference:
INSERT INTO results (sequence_content, group_label) VALUES
  ('LPPYPPPVPILI', 'midrange'),
  ('GLCFRVCIWVFV', 'bottom end'),
  ('RVCYQIAISLPI', 'top end'),
  ('SVVVLHVHVRPP', 'top end');

Now for a further sequence.
Lookup: Form: Item = MALAVRVVVCGA ; Class = ?
Found: bottom end

====

system: Saccharomyces cerevisiae; assay: protein stability index of tFT-peptide fusion (C-terminal peptide) (PSI (0-1 scale)); higher = more stable (slower turnover); conditions: genetic background: wild type; temperature: 30 C
This listing pairs sequences with measured protein stability index.
Number, no unit, nothing else.

INSERT INTO assay_data (sequence_content, value_measured) VALUES
  ('IRRHAYYNQDDD [SLA2 C-terminal 12 aa]', 0.664),
  ('AYLQYYSESPEN [DUG1 C-terminal 12 aa]', 0.724),
  ('NYAPHLSDATTS [MAC1 C-terminal 12 aa]', 0.706),
  ('KLEKLKAEKTRR [YDL085C-A C-terminal 12 aa]', 0.673),
  ('MVKIRTKNDAKN [TAF2 C-terminal 12 aa]', 0.613),
  ('GMLYALYIVLQD [PMP3 C-terminal 12 aa]', 0.32);

Continue with the next sequence.
Lookup: API: value(readout= protein stability index, system= Saccharomyces cerevisiae, query= KEKKDKKKKSKD [NOP56 C-terminal 12 aa] )
Found: 0.661

====

system: Saccharomyces cerevisiae; test: protein stability index of tFT-peptide fusion (C-terminal peptide) (PSI (0-1 scale)); higher = more stable (slower turnover); settings: genetic background: das1 deletion; temperature: 37 C
Outcome: y for protein stability index of at least 0.6; n for anything lower.

Some solved cases for reference:
INSERT INTO assay_data (sequence_content, group_label) VALUES
  ('YLFDQYDWYKSM', 'y'),
  ('KLKLWSIIKNNA', 'y');

Lookup: Please check the record FRFFYLPVSVVA and state if its protein stability index is at or above 0.6.
Found: n

Lookup: Ok, now YHFRLLVTCCPC
Found: n

Lookup: Ok, now VVIYWFLPIIFA
Found: n

Lookup: Ok, now VVNFLVFRFFCI
Found: y

Lookup: Ok, now RYVFAFRRNYFC
Found: y

Lookup: Ok, now RMCEILGIRHLI
Found: y

Lookup: Ok, now GKVSSFVLFHIS
Found: y

Lookup: Ok, now FGVECDLCLFCC
Found: y

Lookup: Ok, now FLFFMGVGVVLY
Found: n

Lookup: Ok, now WFIFATFLILVT
Found: n

====

system: Saccharomyces cerevisiae; assay: protein stability index of tFT-peptide fusion (C-terminal peptide) (PSI (0-1 scale)); higher = more stable (slower turnover); conditions: genetic background: wild type; temperature: 30 C
This listing pairs sequences with measured protein stability index.
Number, no unit, nothing else.

INSERT INTO assay_data (sequence_content, system_under_test, measurement_name, value_measured) VALUES
  ('YSGFVVGASDTL', 'Saccharomyces cerevisiae', 'protein stability index', 0.601),
  ('AADVALQFKPRT', 'Saccharomyces cerevisiae', 'protein stability index', 0.658);

Lookup: Would you kindly share the measured protein stability index for VVELRGEKLVGR ?
Found: 0.678

Lookup: Ok, now CCKMITYKEGRE
Found: 0.692

Lookup: Ok, now AYPAHQLLVSCL
Found: 0.482

Lookup: Ok, now STVPGRPKLTLV
Found: 0.578

Lookup: Ok, now RWSPLLPPQVSL
Found: 0.683

Lookup: Ok, now STSPRSAFSPLT
Found: 0.619

Lookup: Ok, now AGVTRALSVFLL
Found: 0.54

Lookup: Ok, now GTRAGGRSKRER
Found: 0.735

Lookup: Ok, now RSTSPCPPTVSP
Found: 0.641

Lookup: Ok, now ERGAEGKKEPEK
Found: 0.653

Lookup: Ok, now LGSRSGPLFPCV
Found: 0.655

Lookup: Ok, now EKVRICKWKGGI
Found: 0.616

Lookup: Ok, now RIRPPPAPPPPP
Found: 0.569

Lookup: Ok, now PVLFSPPSPFFP
Found: 0.708

Lookup: Ok, now FRFFYLPVSVVA
Found: 0.223

Lookup: Ok, now EFSILLPLPFFR
Found: 0.656

Lookup: Ok, now GWGGGGFRVVVG
Found: 0.782

Lookup: Ok, now QRCWSRKGVNSL
Found: 0.67

Lookup: Ok, now QADHGSSPHSIG
Found: 0.717

Lookup: Ok, now KKKKKQKDTKHR
Found: 0.682

Lookup: Ok, now WGEGCGSSEEGE
Found: 0.695

Lookup: Ok, now RQEFSGAPPHLI
Found: 0.697

Lookup: Ok, now GGVSRLVGRLGG
Found: 0.706

Lookup: Ok, now LVVGCFLTFCFG
Found: 0.315

Lookup: Ok, now PPPLPPPPPTRP
Found: 0.616
